Assay: Pharmacokinetic study in SD rats after oral gavage, plasma by LC/MS/MS
Assay type: in vivo
Details: both sexes, Sprague-Dawley (SD), rat, 2 mg/kg, 2mpk, read-out: AUCINF_pred
recorded-metric: AUC(0-inf) (ng·h/mL)

P. CCN1CCN(c2ccc(Nc3cc(N(C)C(=O)Nc4c(Cl)c(OC)cc(OC)c4Cl)ncn3)cc2)CC1 [Infigratinib, reference compound]
Q. Cc1nn(C2CC2)cc1-c1ccc(-c2n[nH]c3ccc(O[C@H](C)c4c(Cl)cncc4Cl)nc23)cn1 [Cpd-145A]
R. Cc1cc2[nH]nc(-c3ccc(-c4c(C)nn(CC(C)(C)O)c4C)nc3)c2nc1O[C@H](C)c1c(Cl)cncc1Cl [Cpd-175A]
Sort by AUC(0-inf), descending. Answer format: the labels, ordered as requested.
Q, R, P

----------
Assay: Pharmacokinetic study in SD rats after oral gavage, plasma by LC/MS/MS
Format: in vivo
Conditions: rat, 2 mg/kg, 2mpk
Protocol: The SD rats were used as test animals. The drug concentration in plasma at different time points was determined by LC/MS/MS method after the compound of the present invention was administered to the SD rats by oral gavage. The pharmacokinetic behavior of the compound of the present invention in SD rats was studied and the pharmacokinetic characteristics were evaluated. […]
recorded-metric: half-life (h)
Give a bare numeral; the unit h is implied.

For the compound shown here, C[C@@H](Oc1ccc2[nH]nc(-c3cnc(C4=CCS(=O)(=O)CC4)c(F)c3)c2n1)c1c(Cl)cncc1Cl [Cpd-03A] , give the reported half-life.
1.5

----------
Assay: Pharmacokinetic study in SD rats after oral gavage, plasma by LC/MS/MS
Assay type: in vivo
Details: both sexes, Sprague-Dawley (SD), rat, 2 mg/kg, 2mpk
Description: The SD rats were used as test animals. The drug concentration in plasma at different time points was determined by LC/MS/MS method after the compound of the present invention was administered to the SD rats by oral gavage. The pharmacokinetic behavior of the compound of the present invention in SD rats was studied and the pharmacokinetic characteristics were evaluated. […]
recorded-metric: Tmax (h)

Which value of Tmax has been reported for Cc1nn(C2CC2)cc1-c1ccc(-c2n[nH]c3ccc(O[C@H](C)c4c(Cl)cncc4Cl)nc23)cn1 [Cpd-145A] in the records?
2

I. Cc1cc2[nH]nc(-c3ccc(-c4c(C)nn(CC(C)(C)O)c4C)nc3)c2nc1O[C@H](C)c1c(Cl)cncc1Cl [Cpd-175A]
II. CCN1CCN(c2ccc(Nc3cc(N(C)C(=O)Nc4c(Cl)c(OC)cc(OC)c4Cl)ncn3)cc2)CC1 [Infigratinib, reference compound]
Between these two entries, I and II , state which has the higher Tmax. Your answer should be the label of the entry you select.
II
(II: 3 h, I: 2 h)

----------
Test system: Ba/F3-FGFR1 cells
Experiment: Cell proliferation inhibition, CTG method (Ba/F3-FGFR1)
Type: cell-based
Conditions: 72 hrs
recorded-metric: IC50 (nM)

Some compounds with recorded IC50:
Please tell me: IC50 of C[C@@H](Oc1ccc2[nH]nc(-c3ccc(N4CCN(S(C)(=O)=O)CC4)nc3)c2n1)c1c(Cl)cncc1Cl [Cpd-119A] , system Ba/F3-FGFR1 cells?
45.9

Repeat with Cc1nn(CC(C)(C)O)c(C)c1-c1ccc(-c2n[nH]c3ccc(O[C@H](C)c4c(Cl)cncc4Cl)nc23)cn1 [Cpd-158A]
23.6

Try this compound too: Cc1nn(CC(C)(C)O)cc1-c1ncc(-c2n[nH]c3ccc(O[C@H](C)c4c(Cl)cncc4Cl)nc23)cc1F [Cpd-162A]
32.6

Queued: Cc1cc2[nH]nc(-c3ccc(-c4c(C)nn(CC(C)(C)O)c4C)nc3)c2nc1O[C@H](C)c1c(Cl)cncc1Cl [Cpd-175A]
31.5

Next up: C[C@@H](Oc1ccc2[nH]nc(-c3ccc(C4=CCS(=O)(=O)CC4)nc3)c2n1)c1c(Cl)cncc1Cl [Cpd-02A]
23.9

I. CCN1CCN(c2ccc(Nc3cc(N(C)C(=O)Nc4c(Cl)c(OC)cc(OC)c4Cl)ncn3)cc2)CC1 [Infigratinib, reference compound]
II. Cc1nn(C2CC2)cc1-c1ccc(-c2n[nH]c3ccc(O[C@H](C)c4c(Cl)cncc4Cl)nc23)cn1 [Cpd-145A]
III. C[C@@H](Oc1ccc2[nH]nc(-c3ccc(N4CCC(C(C)(C)O)CC4)nc3)c2n1)c1c(Cl)cncc1Cl [Cpd-124A]
Returns the items ordered by IC50, from maximum to minimum. Sort the labels as requested; that list is your answer.
III, II, I
(III: 123 nM, II: 31.4 nM, I: 8.1 nM)
